Ref: PubChem BioAssay (Tox21)

# assay.method.text: qHTS assay to identify small molecule agonists of the estrogen receptor alpha (ER-alpha) signaling pathway in the presence of an antagonist - cell viability counter screen (AID 1259386);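 further: cells exposed to compounds for 22 h at 37 °C before the viability read; nearly all actives have a fitted effect of over 30% in size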
# condition.set: VM7Luc4E2 viability, CellTiter-Fluor fluorescence, 22 h; series mostly up to 92.4 µM
Results filed as inconclusive are left out. Active and inactive are the calls of the source. The call rests on the fitted dose curve; in most records, active means well fitted cell-killing curve with a large enough effect in the repeat runs; inconclusive means weak or mixed curves, or effect the other way; inactive means no such curve, though single readings can be large or run the other way.
Classes used: 1 for active, 0 for inactive

> print(dat)
                                   compound  assigned.class
1  CC(C)C[C@H]1C(=O)N2CCC[C@H]2[C@]2(O)O[C@](NC(=O)[C@@H]3C=C4c5cccc6[nH]c(Br)c(c56)C[C@H]4N(C)C3)(C(C)C)C(=O)N12               0
2  N=c1ccn2c(n1)O[C@H]1[C@H](O)[C@@H](CO)O[C@H]12               0
3                CCCCCCCCCc1ccc(OCCOCCO)cc1               1
4  CC1=CCCC(C)(C)C12CCC(C)O2 (stereo not given)               0
5                      C=CC(=O)OCCOc1ccccc1               0
